molecular target: UniProt P09874; assay: Inhibition of GST-tagged recombinant human PARP-1 expressed in Escherichia coli after 30 mins by fluorescence-based assay
Recorded measurements of pIC50, one per entry
// pIC50 is dimensionless: -log10 of concentration (M)

> print(dat)
                                  structure  readoutnumber
1  O=C(Cc1n[nH]c(=O)c2ccccc12)NCCc1ccc2c(c1)OCCO2           6.55
2  O=C1CN(C(=O)CCc2nc3ccccc3c(=O)[nH]2)CCN1           6.72
3  O=C(CCc1nc2ccccc2c(=O)[nH]1)N1CCN(C(=O)c2ccc[nH]2)CC1           7.53
4  O=C(c1n[nH]c(=O)c2ccccc12)N1CCN(/C=C/c2ccccc2)CC1           6.59

From here, focus on the item given below.
Query block: Could you share which pIC50 value was measured for "Cc1c(C(=O)N2CCN(C(=O)CCc3nc4ccccc4c(=O)[nH]3)CC2)oc2ccccc12" ?
Result block: 6.89

###

Recorded measurements of pIC50, one per entry
target: Poly [ADP-ribose] polymerase 1 (Homo sapiens, UniProt P09874); assay: Inhibition of GST-tagged recombinant human PARP-1 expressed in Escherichia coli after 30 mins by fluorescence-based assay
Sequence (P09874 whole entry): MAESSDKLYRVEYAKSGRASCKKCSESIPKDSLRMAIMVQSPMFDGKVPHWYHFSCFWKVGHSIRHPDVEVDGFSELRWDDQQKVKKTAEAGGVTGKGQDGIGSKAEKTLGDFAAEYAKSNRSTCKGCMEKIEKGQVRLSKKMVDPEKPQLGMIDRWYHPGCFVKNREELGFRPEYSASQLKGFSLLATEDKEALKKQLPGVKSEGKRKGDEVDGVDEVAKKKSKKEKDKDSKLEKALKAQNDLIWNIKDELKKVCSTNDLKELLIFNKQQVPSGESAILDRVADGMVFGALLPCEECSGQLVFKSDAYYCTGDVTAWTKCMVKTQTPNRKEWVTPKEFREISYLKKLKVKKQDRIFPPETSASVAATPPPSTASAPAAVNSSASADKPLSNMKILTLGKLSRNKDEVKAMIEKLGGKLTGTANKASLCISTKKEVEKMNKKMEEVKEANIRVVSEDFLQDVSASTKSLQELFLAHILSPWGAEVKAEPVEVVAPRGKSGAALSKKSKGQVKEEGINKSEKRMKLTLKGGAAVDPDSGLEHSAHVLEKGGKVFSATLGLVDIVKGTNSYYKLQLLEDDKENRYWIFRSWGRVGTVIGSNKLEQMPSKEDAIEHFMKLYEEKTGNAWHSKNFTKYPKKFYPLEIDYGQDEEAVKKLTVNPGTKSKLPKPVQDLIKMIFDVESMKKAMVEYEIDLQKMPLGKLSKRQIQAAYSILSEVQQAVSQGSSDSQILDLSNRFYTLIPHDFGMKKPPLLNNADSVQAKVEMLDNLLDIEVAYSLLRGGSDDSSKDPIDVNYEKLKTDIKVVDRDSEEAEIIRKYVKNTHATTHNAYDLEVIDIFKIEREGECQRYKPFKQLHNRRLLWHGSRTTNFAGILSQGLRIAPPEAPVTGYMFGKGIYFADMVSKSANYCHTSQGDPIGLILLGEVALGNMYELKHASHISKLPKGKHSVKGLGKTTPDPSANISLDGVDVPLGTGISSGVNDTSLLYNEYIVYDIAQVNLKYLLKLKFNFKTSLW
// pIC50 is dimensionless: -log10 of concentration (M)

> print(dat)
                                   compound  readoutnumber
1  CC(NC(=O)Cc1n[nH]c(=O)c2ccccc12)c1ccc2c(c1)CCCC2 (stereo unspecified)           5.73
2       O=C1NC(=O)c2ccccc2/C1=C\c1ccc(F)cc1           5.60
3  NC(=O)C1CCN(C(=O)CCc2nc(O)c3ccccc3n2)CC1           6.57
4  O=C(Cc1n[nH]c(=O)c2ccccc12)NCc1ccc(N2CCOCC2)nc1           7.30
5  C=CCOC(=O)N1CCCC(C(=O)N2CCN(C(=O)CCc3nc4ccccc4c(=O)[nH]3)CC2)C1 (stereo unspecified)           6.52

From here, focus on the item given below.
Query block: Form field - read-out: pIC50; system: Poly [ADP-ribose] polymerase 1 (Homo sapiens, UniProt P09874); submitted item: "Cc1oc(C(N)=O)cc1COc1ccccc1C(N)=O"
Result block: 5.78
